molecules and their reported MIC
test system: Mycolicibacterium smegmatis; experiment: Potentiation of Ampicillin-induced antibacterial activity against Mycobacterium smegmatis mc2 155 ATCC 700084 assessed as Ampicillin MIC at 60 uM incubated for 48 hrs by alamarblue dye based broth microdilution method (reference value: 128 ug/ml); format: functional
attribute.measured: MIC (µg/mL)

{"compound.structure.string": "CN(C)c1nccc(-c2c[nH]c3ccc(Br)cc23)n1", "result": 64}
{"compound.structure.string": "CCNc1nccc(-c2c[nH]c3ccc(Br)cc23)n1", "result": 64}
{"compound.structure.string": "Cn1cc(-c2ccnc(N)n2)c2cc(Br)ccc21", "result": 32}
{"compound.structure.string": "Nc1nccc(-c2c[nH]c3cc(I)ccc23)n1", "result": 128}
{"compound.structure.string": "Nc1nccc(-c2c[nH]c3ccc(I)cc23)n1", "result": 128}
{"compound.structure.string": "Brc1ccc2[nH]cc(-c3ccnc(NCc4ccccc4)n3)c2c1", "result": 64}
{"compound.structure.string": "CNc1nccc(-c2c[nH]c3ccc(Br)cc23)n1", "result": 64}

###

system: Mycolicibacterium smegmatis; test: Antibiofilm activity against Mycobacterium smegmatis mc2 155 ATCC 700084 assessed as dispersion of preformed biofilms measured after 24 hrs by crystal violet reporter assay; assay type: functional, organism-based; settings: MC2 155 ATCC 700084, 24 h

{"compound.structure.string": "CCCCn1cc(-c2ccnc(N)n2)c2ccc(Br)cc21", "EC50": "> 50 µM"}
{"compound.structure.string": "Cn1cc(-c2ccnc(N)n2)c2ccc(Br)cc21", "EC50": "> 50 µM"}
{"compound.structure.string": "Nc1nccc(-c2c[nH]c3cc(I)ccc23)n1", "EC50": "29.4 µM"}
{"compound.structure.string": "CC(C)Cn1cc(-c2ccnc(N)n2)c2cc(Br)ccc21", "EC50": "> 50 µM"}
{"compound.structure.string": "Nc1nccc(-c2c[nH]c3c(Br)cccc23)n1", "EC50": "> 50 µM"}
{"compound.structure.string": "CCn1cc(-c2ccnc(N)n2)c2ccc(Br)cc21", "EC50": "> 50 µM"}
{"compound.structure.string": "Nc1nc(-c2c[nH]c3ccc(Br)cc23)c[nH]1", "EC50": "> 50 µM"}
{"compound.structure.string": "Nc1nccc(-c2c[nH]c3cc(Cl)ccc23)n1", "EC50": "> 50 µM"}
{"compound.structure.string": "Nc1nc(-c2c[nH]c3cc(Br)ccc23)c[nH]1", "EC50": "27.9 µM"}
{"compound.structure.string": "Nc1nccc(-c2cn(Cc3ccccc3)c3cc(Br)ccc23)n1", "EC50": "> 50 µM"}
{"compound.structure.string": "Nc1nccc(-c2c[nH]c3ccc(I)cc23)n1", "EC50": "28.1 µM"}
{"compound.structure.string": "CCNc1nccc(-c2c[nH]c3ccc(Br)cc23)n1", "EC50": "39.3 µM"}

###

assay: Hemolytic activity in sheep RBC assessed as hemolysis at 500 uM measured after 1 hr by UV spectrometer analysis; assay type: ADME, cell-based, Ovis aries, Erythrocyte; details: sheep red blood cells (erythrocytes), read-out: Activity
attribute.measured: hemolysis at 1 h, 500 µM

{"compound": "Nc1nccc(-c2c[nH]c3cc(Br)ccc23)n1 [MERIDIANIN D]", "result": "13%"}
{"compound": "Brc1ccc2[nH]cc(-c3ccnc(NCc4ccccc4)n3)c2c1", "result": "32%"}
{"compound": "CCCCn1cc(-c2ccnc(N)n2)c2ccc(Br)cc21", "result": "73%"}
{"compound": "Nc1nc(-c2c[nH]c3cc(Br)ccc23)c[nH]1", "result": "14%"}
